system: FER; conditions: concentration: 1 μM, replicates: in singlicate; n = 1;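 also: KINOMEscan kinase panel screen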

| Compound | Units | %Inh |
| --- | --- | --- |
| COc1cc(Nc2ncc3c(C)nc(-c4cc5ccccc5[nH]4)n3n2)cc(OC)c1OC [GW869516] | % | 0 |
| Cc1occc1-c1ncc(OC[C@@H](N)Cc2c[nH]c3ccccc23)cc1-c1ccc2[nH]nc(C)c2c1.O=C(O)C(F)(F)F [GSK682037] | % | 76 |
| CC(=O)Nc1nc2cnc(Nc3cc(NC(=O)c4cccc(C5(C#N)CC5)c4Cl)ccc3C)nc2s1 | % | 0 |
| Nc1ncc(-c2ccc3nccc(-c4ccncc4)c3c2)cc1S(=O)(=O)N1CCOCC1 [GSK1627798] | % | 11 |
| COc1cc(Nc2nccc(-c3c(-c4cccc(NC(=O)c5c(F)cccc5F)c4)nn4ncccc34)n2)cc(OC)c1OC [GSK327238] | % | 77 |
| Cn1cc(-c2ccc3c(c2)CCN3C(=O)Cc2cccc(Cl)c2)c2c(N)ncnc21 [GSK2606590] | % | 35 |

====

tested on: MAP3K3; settings: concentration: 1 μM, replicates: in singlicate; n = 1
Property measured: %Inh (%)

| Molecule smiles | Target or system | Units | Recorded number |
| --- | --- | --- | --- |
| C[C@@H]1CC[C@@H](C(=O)Nc2ccccc2)CN1c1cc(-c2ccc3c(N)n[nH]c3c2)nc(N)n1 | MAP3K3 | % | 0 |
| Cn1cc(-c2[nH]c3cc(NC(=O)[C@H](N)C4CCCCC4)cc4c3c2C=NNC4=O)cn1 | MAP3K3 | % | 94.8 |
| COc1cc(Nc2nccc(-c3c(-c4cccc(NC(=O)c5c(F)cccc5F)c4)nn4ccccc34)n2)cc(OC)c1OC | MAP3K3 | % | 20 |

====

tested on: NEK10; conditions: concentration: 1 μM, replicates: in singlicate; n = 1

| Compound | %Inh [%] |
| --- | --- |
| O=C(NC1CCN(c2ccnc(Nc3ccc(F)cc3)n2)C1)c1cc2ccccc2s1 (stereo not shown) [GSK1379716] | 19 |
| Cc1ccc(C(=O)N2CC[C@@H](O)C2)cc1-n1c(C)cc(OCc2ccc(F)cc2F)c(Br)c1=O | 0 |
| CCn1c(-c2nonc2N)nc2c(C#CC(C)(C)O)ncc(OCCCCN)c21.O=C(O)C(F)(F)F.O=C(O)C(F)(F)F [GSK507274] | 15 |
| Cc1ccc(C)c(NC(=O)NC2CCN(c3ccnc(Nc4ccc(F)cc4)n3)C2)c1 (stereo not shown) [GSK1379720] | 9 |
| CC(C)(C)c1ccc2nccc(Nc3cccc(O)c3)c2c1 [GW856795] | 0 |
| COc1cccc(C(=O)Nc2cccc(Oc3ccc4nc(NC(=O)C5CC5)cn4n3)c2)c1 | 0 |
| COc1cc(Nc2ncc3c(C)nc(-c4cc5ccccc5[nH]4)n3n2)cc(OC)c1OC [GW869516] | 0 |
| Cl.Cl.NCC(C(=O)Nc1cc(Br)c(-c2ccnc3[nH]ccc23)s1)c1ccccc1 (stereo not shown) [GSK1269851] | 12 |
| COc1cc(Nc2nccc(N3CCC(NC(=O)Nc4cccc(C(C)=O)c4)C3)n2)cc(OC)c1OC (stereo not shown) [GSK1379753] | 20 |
| O=C(Nc1ccccc1F)NC1CCN(c2ccnc(Nc3ccc(F)cc3)n2)CC1 [GSK1379800] | 5 |
| Cl.Cl.NCC(NC(=O)c1cc(-c2ccccc2)c(-c2ccnc3[nH]ccc23)s1)c1ccccc1 (stereo not shown) [GSK1321561] | 25 |
| O=c1[nH]cc(-c2ccc(N3CCOCC3)cc2)c2sc(-c3cn[nH]c3)cc12 [GSK2276055] | 0 |
| CSc1cccc2c(-c3ccncn3)c(-c3ccc(F)cc3)nn12 [GW514786] | 2 |

Data provenance is paper PMC5540273.
